// data source = ChEMBL document CHEMBL1765069

Overview of reported IC50 across a group of molecules:
molecular target: Cannabinoid receptor 1 (Homo sapiens, UniProt P21554); assay: Agonist activity at human CB1 receptor expressed in CHOK1 cells assessed as inhibition of forskolin-induced cAMP production treated 15 mins before forskolin challenge measured after 1 hr by HTRF assay
Sequence (P21554 whole entry): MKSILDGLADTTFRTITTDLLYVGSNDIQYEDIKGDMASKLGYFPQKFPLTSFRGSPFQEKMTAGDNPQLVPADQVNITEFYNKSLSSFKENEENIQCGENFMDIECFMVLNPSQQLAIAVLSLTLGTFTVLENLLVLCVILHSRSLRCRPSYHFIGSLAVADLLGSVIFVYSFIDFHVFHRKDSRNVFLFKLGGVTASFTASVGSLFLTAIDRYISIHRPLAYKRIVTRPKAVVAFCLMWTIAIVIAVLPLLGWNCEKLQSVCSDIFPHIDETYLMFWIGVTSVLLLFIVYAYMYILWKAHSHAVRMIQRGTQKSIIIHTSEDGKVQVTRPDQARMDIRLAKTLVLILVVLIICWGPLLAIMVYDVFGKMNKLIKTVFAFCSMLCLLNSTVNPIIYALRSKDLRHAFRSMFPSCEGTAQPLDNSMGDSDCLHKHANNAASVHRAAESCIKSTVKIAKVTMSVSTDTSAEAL

MOLECULE: O=C(c1csc(-c2ccncc2)n1)N1CCC(O)(c2ccccc2)[C@@H]2CCCC[C@@H]21 (single isomer, unassigned; form 1)
IC50: > 17 µM
--
MOLECULE: O=C(c1ncccn1)N1CC[C@@](O)(c2ccccc2)[C@@H]2CCCC[C@@H]21 (racemic)
IC50: > 17 µM
--
MOLECULE: O=C(c1ccc2ccccc2n1)N1CC[C@](O)(c2ccccc2)[C@H]2CCCC[C@H]21
IC50: 0.188 µM
--
MOLECULE: O=C(c1cc(-c2ccccc2F)n[nH]1)N1CC[C@](O)(c2ccccc2)[C@H]2CCCC[C@@H]21
IC50: > 17 µM

---

target: Cannabinoid receptor 1 (Homo sapiens, UniProt P21554); test: Agonist activity at human CB1 receptor expressed in CHOK1 cells assessed as inhibition of forskolin-induced cAMP production treated 15 mins before forskolin challenge measured after 1 hr by HTRF assay relative to control; type: functional, cell-based; conditions: CHO-K1
Overview of reported Emax across a group of compounds:

COMPOUND: O=C(c1ccc2[nH]ccc2c1)N1CC[C@@](O)(c2ccccc2)[C@@H]2CCCC[C@@H]21 (racemic)
RESULT UNIT: %
Emax: 91
--
COMPOUND: O=C(c1csc(-c2ccncc2)n1)N1CCC(O)(c2ccccc2)[C@@H]2CCCC[C@@H]21 (single isomer, unassigned; form 1)
RESULT UNIT: %
Emax: 12
--
COMPOUND: O=C(c1cccc2[nH]ncc12)N1CC[C@@](O)(c2ccccc2)[C@@H]2CCCC[C@@H]21 (racemic)
RESULT UNIT: %
Emax: 15

---

biological target: Cannabinoid receptor 1 (Homo sapiens, UniProt P21554); assay: Agonist activity at human CB1 receptor expressed in CHOK1 cells assessed as inhibition of forskolin-induced cAMP production treated 15 mins before forskolin challenge measured after 1 hr by HTRF assay
pIC50: −log10 of the molar value.
MEASUREMENT KIND: pIC50

COMPOUND: O=C1CC(C(=O)N2CC[C@@](O)(c3ccccc3)[C@@H]3CCCC[C@@H]32)CN1 (mixture of isomers)
MEASUREMENT KIND: pIC50
DATA VALUE: < 4.77
--
COMPOUND: O=C(c1csc(-c2ccncc2)n1)N1CCC(O)(c2ccccc2)[C@@H]2CCCC[C@@H]21 (some centres not stated)
MEASUREMENT KIND: pIC50
DATA VALUE: < 4.77
--
COMPOUND: Cc1cccc(C(=O)N2CC[C@@](O)(c3ccccc3)[C@@H]3CCCC[C@@H]32)n1 (racemic)
MEASUREMENT KIND: pIC50
DATA VALUE: < 4.77
--
COMPOUND: CN1CCC(C(=O)N2CC[C@](O)(c3ccccc3)[C@H]3CCCC[C@H]32)C1 (some centres not stated)
MEASUREMENT KIND: pIC50
DATA VALUE: < 4.77
--
COMPOUND: O=C(c1cnc2ccccc2c1)N1CC[C@@](O)(c2ccccc2)[C@@H]2CCCC[C@@H]21 (racemic)
MEASUREMENT KIND: pIC50
DATA VALUE: 5.82
--
COMPOUND: O=C(c1csc(-c2ccncc2)n1)N1CCC(O)(c2ccccc2)[C@@H]2CCCC[C@@H]21 (single isomer, unassigned; form 4)
MEASUREMENT KIND: pIC50
DATA VALUE: 6.03
--
COMPOUND: O=C(c1ccc(Cl)cc1)N1CC[C@](O)(c2ccccc2)[C@H]2CCCC[C@@H]21
MEASUREMENT KIND: pIC50
DATA VALUE: 6.02
--
COMPOUND: O=C(c1ccccc1)N1CC[C@](O)(c2ccccc2)[C@H]2CCCC[C@@H]21
MEASUREMENT KIND: pIC50
DATA VALUE: < 4.77
--
COMPOUND: O=C(c1cccc2[nH]ccc12)N1CC[C@](O)(c2ccccc2)[C@H]2CCCC[C@H]21
MEASUREMENT KIND: pIC50
DATA VALUE: < 4.77
--
COMPOUND: O=C(c1cscn1)N1CC[C@@](O)(c2ccccc2)[C@@H]2CCCC[C@@H]21 (racemic)
MEASUREMENT KIND: pIC50
DATA VALUE: < 4.77
--
COMPOUND: O=C(c1cccc2[nH]ncc12)N1CCC(O)(c2ccccc2)[C@@H]2CCCC[C@@H]21 (some centres not stated)
MEASUREMENT KIND: pIC50
DATA VALUE: 5.37
--
COMPOUND: Cc1ccc(C(=O)N2CC[C@@](O)(c3ccccc3)[C@@H]3CCCC[C@@H]32)cn1 (racemic)
MEASUREMENT KIND: pIC50
DATA VALUE: < 4.77
--
COMPOUND: O=C(C1CN(CC(F)(F)F)CCO1)N1CC[C@@](O)(c2ccccc2)[C@@H]2CCCC[C@@H]21 (mixture of isomers)
MEASUREMENT KIND: pIC50
DATA VALUE: 5.39
--
COMPOUND: O=C(c1cccc2[nH]ncc12)N1CCC(O)(c2ccccc2)[C@@H]2CCCC[C@@H]21 (single isomer, unassigned)
MEASUREMENT KIND: pIC50
DATA VALUE: < 4.77
--
COMPOUND: O=C(c1csc(-c2ccncc2)n1)N1CCC(O)(c2ccccc2)[C@@H]2CCCC[C@@H]21 (single isomer, unassigned; form 3)
MEASUREMENT KIND: pIC50
DATA VALUE: < 4.77
--
COMPOUND: CN1CCOCC1C(=O)N1CC[C@@](O)(c2ccccc2)[C@@H]2CCCC[C@@H]21 (mixture of isomers)
MEASUREMENT KIND: pIC50
DATA VALUE: < 4.77
--
COMPOUND: CN1CCCCC1C(=O)N1CC[C@@](O)(c2ccccc2)[C@@H]2CCCC[C@@H]21 (mixture of isomers)
MEASUREMENT KIND: pIC50
DATA VALUE: < 4.77
--
COMPOUND: O=C(c1ccncn1)N1CC[C@@](O)(c2ccccc2)[C@@H]2CCCC[C@@H]21 (racemic)
MEASUREMENT KIND: pIC50
DATA VALUE: < 4.77
--
COMPOUND: CN1CCOC[C@H]1C(=O)N1CC[C@@](O)(c2ccccc2)[C@@H]2CCCC[C@@H]21
MEASUREMENT KIND: pIC50
DATA VALUE: < 4.77
--
COMPOUND: O=C(c1nnc[nH]1)N1CC[C@@](O)(c2ccccc2)[C@@H]2CCCC[C@@H]21 (racemic)
MEASUREMENT KIND: pIC50
DATA VALUE: < 4.77
--
COMPOUND: O=C(c1cn(CC(F)(F)F)cn1)N1CC[C@@](O)(c2ccccc2)[C@@H]2CCCC[C@@H]21 (racemic)
MEASUREMENT KIND: pIC50
DATA VALUE: < 4.77
--
COMPOUND: O=C(c1ccccc1)N1CC[C@](O)(c2ccccc2)[C@H]2CCCC[C@H]21
MEASUREMENT KIND: pIC50
DATA VALUE: 5.34
--
COMPOUND: CN1CC(C(=O)N2CC[C@@](O)(c3ccccc3)[C@@H]3CCCC[C@@H]32)CCC1=O (mixture of isomers)
MEASUREMENT KIND: pIC50
DATA VALUE: < 4.77
--
COMPOUND: O=C(c1ccc2ncccc2c1)N1CC[C@@](O)(c2ccccc2)[C@@H]2CCCC[C@@H]21 (racemic)
MEASUREMENT KIND: pIC50
DATA VALUE: 6.58
--
COMPOUND: O=C(c1ccc2cnccc2n1)N1CC[C@@](O)(c2ccccc2)[C@@H]2CCCC[C@@H]21 (racemic)
MEASUREMENT KIND: pIC50
DATA VALUE: 5.46
--
COMPOUND: Cc1ccc(C(=O)N2CC[C@@](O)(c3ccccc3)[C@@H]3CCCC[C@@H]32)cn1
MEASUREMENT KIND: pIC50
DATA VALUE: 5.30
--
COMPOUND: O=C(c1ccc(C(F)(F)F)nc1)N1CC[C@@](O)(c2ccccc2)[C@@H]2CCCC[C@@H]21 (racemic)
MEASUREMENT KIND: pIC50
DATA VALUE: < 4.77

---

Overview of reported Ratio IC50 across a group of compounds:
organism: Homo sapiens; test: Selectivity ratio of IC50 for human CB1 receptor to IC50 for human CB2 receptor

COMPOUND: O=C(c1ccc2cnccc2n1)N1CC[C@@](O)(c2ccccc2)[C@@H]2CCCC[C@@H]21 (racemic)
CENSORING OPERATOR: =
Ratio IC50: 626
--
COMPOUND: O=C(c1cnc2ccccc2c1)N1CC[C@@](O)(c2ccccc2)[C@@H]2CCCC[C@@H]21 (racemic)
CENSORING OPERATOR: =
Ratio IC50: 452
--
COMPOUND: O=C(c1cccc2[nH]cnc12)N1CC[C@@](O)(c2ccccc2)[C@@H]2CCCC[C@@H]21 (racemic)
CENSORING OPERATOR: >
Ratio IC50: 486
--
COMPOUND: O=C(c1ccc2ncccc2c1)N1CC[C@@](O)(c2ccccc2)[C@@H]2CCCC[C@@H]21 (racemic)
CENSORING OPERATOR: =
Ratio IC50: 492
--
COMPOUND: O=C(c1ccc2[nH]ccc2c1)N1CC[C@@](O)(c2ccccc2)[C@@H]2CCCC[C@@H]21 (racemic)
CENSORING OPERATOR: =
Ratio IC50: 716
--
COMPOUND: O=C(c1cccc2[nH]ncc12)N1CC[C@@](O)(c2ccccc2)[C@@H]2CCCC[C@@H]21 (racemic)
CENSORING OPERATOR: >
Ratio IC50: 4000
